# assay.explanation: Drug metabolism assessed as log K of Holtzman rat liver esterase-mediated hydrolysis after 5 mins
# Assay type: ADME, tissue-based
# protocol.conditions: isolated protein
Label key: Criterion met means log K under 0.3; Criterion not met means log K of 0.3 or more.

CCN(CC)c1ccc(OC(=O)c2cccc(C)c2)cc1 | Criterion not met

Challenge: Consider CCN(CC)c1ccc(OC(=O)c2cccc(OC)c2)cc1 . Does its log K lie strictly below 0.3?
Response given: Criterion met

Challenge: Consider CCN(CC)c1ccc(OC(=O)c2ccc([N+](=O)[O-])cc2)cc1 . Does its log K lie strictly below 0.3?
Response given: Criterion not met

Challenge: Consider CCN(CC)c1ccc(OC(=O)c2cccc([N+](=O)[O-])c2)cc1 . Does its log K lie strictly below 0.3?
Response given: Criterion not met

Challenge: Consider CCN(CC)c1ccc(OC(=O)c2ccc(OC)cc2)cc1 . Does its log K lie strictly below 0.3?
Response given: Criterion met

Challenge: Consider CCN(CC)c1ccc(OC(=O)c2cccc(C(F)(F)F)c2)cc1 . Does its log K lie strictly below 0.3?
Response given: Criterion not met

Challenge: Consider CCN(CC)c1ccc(OC(=O)c2cccc(Cl)c2)cc1 . Does its log K lie strictly below 0.3?
Response given: Criterion not met

Challenge: Consider CCN(CC)c1ccc(OC(=O)c2ccc(C(F)(F)F)cc2)cc1 . Does its log K lie strictly below 0.3?
Response given: Criterion not met

Challenge: Consider CCN(CC)c1ccc(OC(=O)c2ccc(C)cc2)cc1 . Does its log K lie strictly below 0.3?
Response given: Criterion met

Challenge: Consider CCN(CC)c1ccc(OC(=O)c2ccccc2)cc1 . Does its log K lie strictly below 0.3?
Response given: Criterion met

Challenge: Consider CCN(CC)c1ccc(OC(=O)c2ccc(Cl)cc2)cc1 . Does its log K lie strictly below 0.3?
Response given: Criterion met

----------
As shown below, each of these compounds has a reported log1/CLD50 value.
# Organism: Rattus norvegicus
# assay.explanation: Toxicity in rat allografted with rat Walker 256 cells
# Type: organism-based
Lab note: record the figure alone, no unit after it.

Before answering, review these 8 worked examples.
Cc1ccc(C(=O)Oc2ccc(N(CCBr)CCBr)cc2)cc1 | 5.32
Cc1cccc(C)c1C(=O)Oc1ccc(N(CCBr)CCBr)cc1 | 3.58
O=C(Oc1ccc(N(CCCl)CCCl)cc1)c1ccccc1 | 4.06
O=C(Oc1ccc(N(CCCl)CCCl)cc1)c1cccc(Cl)c1 | 3.95
O=C(Oc1ccc(N(CCCl)CCCl)cc1)c1cccc([N+](=O)[O-])c1 | 4.4
O=C(Oc1ccc(N(CCBr)CCBr)cc1)c1ccccc1 | 5.45
O=C(Oc1ccc(N(CCCl)CCCl)cc1)c1cccc(Br)c1 | 3.84
O=C(Oc1ccc(N(CCCl)CCCl)cc1)c1cccc(F)c1 | 4.38

Challenge: Which log1/CLD50 is listed for O=C(Oc1ccc(N(CCBr)CCBr)cc1)c1cccc([N+](=O)[O-])c1 ?
Response given: 5.07

Challenge: Which log1/CLD50 is listed for Cc1ccc(C(=O)Oc2ccc(N(CCCl)CCCl)cc2)cc1 ?
Response given: 4.2

Challenge: Which log1/CLD50 is listed for Cc1ccccc1C(=O)Oc1ccc(N(CCCl)CCCl)cc1 ?
Response given: 3.71

Challenge: Which log1/CLD50 is listed for O=C(O)CCCc1ccc(N(CCCl)CCCl)cc1 ?
Response given: 4.03

Challenge: Which log1/CLD50 is listed for O=C(Oc1ccc(N(CCBr)CCBr)cc1)c1cccc(Cl)c1 ?
Response given: 5.11

Challenge: Which log1/CLD50 is listed for O=C(Oc1ccc(N(CCBr)CCBr)cc1)c1ccc(Cl)cc1 ?
Response given: 5.18

Challenge: Which log1/CLD50 is listed for O=C(Oc1ccc(N(CCBr)CCBr)cc1)c1ccc([N+](=O)[O-])cc1 ?
Response given: 5.37

----------
# Species: Rattus norvegicus
# assay.explanation: Toxicity in rat allografted with rat Walker 256 cells
# Type: organism-based
As shown below, each of these compounds has a reported log1/CLD50 value.
Lab note: record the figure alone, no unit after it.

Before answering, review these 3 worked examples.
O=C(Oc1ccc(N(CCBr)CCBr)cc1)c1cccc(C(F)(F)F)c1 | 5.11
O=C(Oc1ccc(N(CCCl)CCCl)cc1)c1ccc(Br)cc1 | 4.19
COc1ccc(C(=O)Oc2ccc(N(CCBr)CCBr)cc2)cc1 | 5.21

Challenge: Which log1/CLD50 is listed for Cc1ccccc1C(=O)Oc1ccc(N(CCBr)CCBr)cc1 ?
Response given: 4.96

Challenge: Which log1/CLD50 is listed for CC(C)c1ccccc1C(=O)Oc1ccc(N(CCBr)CCBr)cc1 ?
Response given: 4.66

Challenge: Which log1/CLD50 is listed for CCc1ccccc1C(=O)Oc1ccc(N(CCBr)CCBr)cc1 ?
Response given: 4.64

Challenge: Which log1/CLD50 is listed for Cc1cccc(C)c1C(=O)Oc1ccc(N(CCCl)CCCl)cc1 ?
Response given: 3.1

Challenge: Which log1/CLD50 is listed for Cc1cccc(C(=O)Oc2ccc(N(CCBr)CCBr)cc2)c1 ?
Response given: 5.16

----------
As shown below, each of these compounds has a reported log1/CLD50 value.
# Species on record: Rattus norvegicus
# assay.explanation: Toxicity in rat allografted with rat Walker 256 cells
# Type: organism-based
Lab note: record the figure alone, no unit after it.

Before answering, review these 2 worked examples.
COc1cccc(C(=O)Oc2ccc(N(CCBr)CCBr)cc2)c1 | 5.25
COc1ccc(C(=O)Oc2ccc(N(CCCl)CCCl)cc2)cc1 | 4.11

Below: the item to evaluate.
Challenge: Which log1/CLD50 is listed for O=C(Oc1ccc(N(CCCl)CCCl)cc1)c1ccc(F)cc1 ?
Response given: 4.21

Reference source: ChEMBL document CHEMBL3244068
